System: K. pneumoniae NVT1001 gyrA/parC and gyrA/parC/ramR mutants and revertants
Test: Etest MIC of quinolones, gyrA/parC and gyrA/parC/ramR mutants and their revertants (Table 11)
Assay type: cell-based
Details: Klebsiella pneumoniae, S83I/D87N/S80I mutant
Task for the reader: assign each of the following compounds its reported MIC.
Give the quantity in µg/mL, number only.

Input: What does the record list as MIC for CCn1cc(C(=O)O)c(=O)c2cc(F)c(N3CCNCC3)cc21 [Norfloxacin, norfloxacin] ?
Output: 64

Input: Recorded MIC of CC1COc2c(N3CCN(C)CC3)c(F)cc3c(=O)c(C(=O)O)cn1c23 (centres unmarked) [Ofloxacin, ofloxacin] , please.
Output: 32

Input: Consider the compound shown here: C[C@H]1COc2c(N3CCN(C)CC3)c(F)cc3c(=O)c(C(=O)O)cn1c23 [Levofloxacin, levofloxacin] What is its recorded MIC?
Output: 8

====

Tested on: K. pneumoniae NVT1001 strains with carbapenemase plasmids
Assay: Etest MIC of β-lactams, OmpK35/36 loss, ΔramR and/or carbapenemase (Table 9)
Type: cell-based, Klebsiella pneumoniae
Conditions: Klebsiella pneumoniae, NDM-1 on pACYC177; ΔramR mutant
Would you mind telling me the reported MIC of each entry?

Input: Param item = CO/N=C(\C(=O)N[C@@H]1C(=O)N2C(C(=O)O)=C(COC(N)=O)CS[C@H]12)c1ccco1 ; retrieve measured MIC.
Output: > 256 µg/mL

Input: Can you share its MIC? I mean this compound: CO[C@@]1(NC(=O)Cc2cccs2)C(=O)N2C(C(=O)O)=C(COC(N)=O)CS[C@@H]21
Output: > 256 µg/mL

Input: Return reported MIC; argument: CC(=O)OCC1=C(C(=O)O)N2C(=O)[C@@H](NC(=O)Cc3cccs3)[C@H]2SC1
Output: > 256 µg/mL

Input: Item C[C@@H](O)[C@H]1C(=O)N2C(C(=O)O)=C(S[C@@H]3CN[C@H](C(=O)Nc4cccc(C(=O)O)c4)C3)[C@H](C)[C@H]12 has what recorded MIC?
Output: > 32 µg/mL

Input: MIC lookup needed for C[C@@H](O)[C@H]1C(=O)N2C(C(=O)O)=C(SCCN=CN)C[C@H]12 , thanks.
Output: > 32 µg/mL

Input: Fill in the blank: the reported MIC of CO/N=C(\C(=O)N[C@@H]1C(=O)N2C(C(=O)O)=C(COC(C)=O)CS[C@H]12)c1csc(N)n1 is ____.
Output: > 256 µg/mL

Input: For the compound CO/N=C(\C(=O)N[C@@H]1C(=O)N2C(C(=O)[O-])=C(C[N+]3(C)CCCC3)CS[C@H]12)c1csc(N)n1 [Cefepime] , what MIC is on record?
Output: > 256 µg/mL

Input: For the compound shown here, C[C@H]1[C@H](NC(=O)/C(=N\OC(C)(C)C(=O)O)c2csc(N)n2)C(=O)N1S(=O)(=O)O , give the reported MIC.
Output: 0.5 µg/mL

Input: Bench note: what MIC did C[C@@H](O)[C@H]1C(=O)N2C(C(=O)O)=C(S[C@@H]3CN[C@H](C(=O)N(C)C)C3)[C@H](C)[C@H]12 show?
Output: 32 µg/mL

Input: Report MIC for CC(C)(O/N=C(\C(=O)N[C@@H]1C(=O)N2C(C(=O)[O-])=C(C[n+]3ccccc3)CS[C@H]12)c1csc(N)n1)C(=O)O please.
Output: > 256 µg/mL

Input: Reported MIC, compound CCO/N=C(\C(=O)N[C@@H]1C(=O)N2C(C(=O)[O-])=C(Sc3nc(-c4cc[n+](C)cc4)cs3)CS[C@H]12)c1nsc(N)n1 : ____
Output: > 256 µg/mL

Input: So what does the record say about MIC for C[C@@H](O)[C@H]1C(=O)N2C(C(=O)O)=C(S[C@@H]3CN[C@H](CNS(N)(=O)=O)C3)[C@H](C)[C@H]12 ?
Output: 32 µg/mL
